assay_details: Metabolic stability in rat hepatocyte assessed as maximum bioavailability measured up to 90 mins by LC-MS/MS analysis
Assay type: ADME
applied_conditions: rat hepatocytes, read-out: Fmax
property: Fh at 1.5 h (%)

Examples from the recorded data:
Input: For CN(C(=O)CN1CCC(c2nc(-c3cc4ccccc4o3)cs2)CC1)c1ccncc1 , what is its reported Fh at 1.5 h?
Output: 10

Input: For c1ccc2oc(-c3csc(C4CCN(c5nnc(-c6ccncc6)o5)CC4)n3)cc2c1 , what is its reported Fh at 1.5 h?
Output: 44

Input: For Fc1cccc2[nH]c(CN3CCC(c4nc(-c5cc6ccccc6o5)cs4)CC3)nc12 , what is its reported Fh at 1.5 h?
Output: 57

Input: For CC(C)(C(=O)Nc1cccc(F)c1)N1CCC(c2nc(-c3cc4ccccc4o3)cs2)CC1 , what is its reported Fh at 1.5 h?
Output: 55

Input: For c1ccc2oc(-c3csc(C4CCN(Cc5nc6cnccc6[nH]5)CC4)n3)cc2c1 , what is its reported Fh at 1.5 h?
Output: 63

(A) c1ccc2oc(-c3csc(C4CCN(Cc5nc6ncccc6[nH]5)CC4)n3)cc2c1
(B) CCc1nccc(N2CCC(N3CCC(c4nc(-c5cc6ccccc6o5)cs4)CC3)C2=O)c1Cl (single isomer, unassigned; form 1)
(C) Cc1nsc(NC(=O)CN2CCC(c3nc(-c4cc5ccccc5o4)cs3)CC2)c1Cl
Input: Rank ascending by Fh at 1.5 h. Reply format: the labels, ordered as requested.
Output: C, B, A

// data source = ChEMBL document CHEMBL5046307
